# ASSAYED SYSTEM: beta-catenin/TCF4 engagement (Homo sapiens)
# Construct: expressed in transfected cells; host or cells: HEK293
# TEST: Nano-BRET target engagement assay (B-cat-Halo & TCF4-Luc in HEK293 cells)
# Assay type: cell-based
# EXPERIMENTAL PARAMETERS: absolute IC50; read-out: NanoBRET Abs IC50
MEASURED ATTRIBUTE: pIC50
Conceptually, pIC50 converts a concentration in mol/L into minus its log10.

Query block: Which pIC50 value is on record for CC(=O)N1CCC[C@]12CC=CCCCC1(CCCC=CCCCOC(=O)N3CC[C@@](C(=O)N[C@@H](Cc4ccccc4C(F)(F)F)C(=O)N[C@@H](Cc4csc5cccc(Cl)c45)C(=O)N[C@@H](C)C(N)=O)(C3)NC(=O)[C@H](CC(C)C)NC(=O)[C@H](Cc3ccccc3)NC(=O)[C@H](C)NC(=O)[C@H](CCC(N)=O)NC(=O)[C@H](Cc3cccc(C(=O)O)c3)NC(=O)[C@H](CC(=O)O)NC1=O)NC(=O)[C@H](CC(C)(C)C)NC(=O)[C@H](CC(=O)O)NC2=O (stereo partly shown) ?
Result block: 5.21

* * *

# TEST: Solubility in PBS
# Assay type: physicochemical
MEASURED ATTRIBUTE: Solubility
Field: value (include unit after the number)

Query block: Which Solubility value is on record for CC[C@H](C)[C@@H]1NC(=O)[C@H](CC(=O)O)NC(=O)[C@]2(CC=CCCCC3(CCCC=CCCCCCC[C@@](C)(C(=O)N[C@@H](Cc4ccccc4)C(=O)N[C@@H](Cc4csc5ccccc45)C(=O)N4CCC[C@H]4C(N)=O)NC(=O)[C@H](CCC(N)=O)NC(=O)[C@H](Cc4ccccc4)NC(=O)[C@H](C)NC(=O)[C@H](C)NC(=O)[C@H](CCC(=O)O)NC(=O)[C@H](CC(=O)O)NC3=O)NC1=O)CCCN2C(C)=O (some centres unmarked) [I-638] ?
Result block: 48 µM

Query block: Do the same for CC(=O)N1CCC[C@]12CC=CCCCC1(CCCC=CCCCOC(=O)N3CC[C@@](C(=O)N[C@@H](Cc4ccsc4)C(=O)N[C@@H](Cc4csc5ccccc45)C(=O)N[C@@H](CO)C(N)=O)(C3)NC(=O)[C@H](CO)NC(=O)[C@H](Cc3ccccc3)NC(=O)[C@H](C)NC(=O)[C@H](C)NC(=O)[C@H](Cc3cccc(C(=O)O)c3)NC(=O)[C@H](CC(=O)O)NC1=O)NC(=O)[C@H](CC(C)(C)C)NC(=O)[C@H](CC(=O)O)NC2=O (some centres unmarked) [I-985] please
Result block: 47 µM

* * *

Task for the reader: assign each of the following compounds its reported pIC50.
# ASSAYED SYSTEM: full-length beta-Catenin (Uniprot ID P35222) (Homo sapiens, UniProt P35222)
# Construct: 10 nM full-length beta-Catenin (Uniprot ID P35222)
# Sequence (P35222 1-781): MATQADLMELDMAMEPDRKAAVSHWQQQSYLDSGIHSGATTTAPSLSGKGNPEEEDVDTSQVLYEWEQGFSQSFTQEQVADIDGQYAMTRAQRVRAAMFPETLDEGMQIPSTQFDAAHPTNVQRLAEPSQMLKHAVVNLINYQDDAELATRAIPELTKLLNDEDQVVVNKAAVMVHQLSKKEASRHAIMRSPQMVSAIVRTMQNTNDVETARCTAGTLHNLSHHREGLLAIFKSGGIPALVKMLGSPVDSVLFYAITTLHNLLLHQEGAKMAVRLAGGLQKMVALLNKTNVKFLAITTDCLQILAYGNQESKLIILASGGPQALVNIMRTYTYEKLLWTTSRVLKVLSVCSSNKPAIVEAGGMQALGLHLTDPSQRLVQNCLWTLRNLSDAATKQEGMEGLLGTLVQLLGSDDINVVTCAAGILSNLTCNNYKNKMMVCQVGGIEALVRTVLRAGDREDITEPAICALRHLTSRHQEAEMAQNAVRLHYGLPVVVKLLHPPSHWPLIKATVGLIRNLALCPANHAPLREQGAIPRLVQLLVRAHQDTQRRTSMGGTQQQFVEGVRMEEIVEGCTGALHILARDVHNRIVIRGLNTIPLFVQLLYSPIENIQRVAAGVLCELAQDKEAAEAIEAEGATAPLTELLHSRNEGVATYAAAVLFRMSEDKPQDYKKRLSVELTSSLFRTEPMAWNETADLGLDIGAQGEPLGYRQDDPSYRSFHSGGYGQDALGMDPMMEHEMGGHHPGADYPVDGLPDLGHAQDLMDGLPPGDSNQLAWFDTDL
# TEST: Fluorescence polarization IC50 (beta-catenin / 5FAM-TCF4 10-53 competition)
# Format: binding
# EXPERIMENTAL PARAMETERS: fluorescence polarization; read-out: beta-Catenin FP IC50
Conceptually, pIC50 converts a concentration in mol/L into minus its log10.

Query block: State its pIC50 on full-length beta-Catenin (Uniprot ID P35222) (Homo sapiens, UniProt P35222): CC(=O)N1CCC[C@]12CC=CCCCC1(CCCC=CCCCCCC[C@@](C)(C(=O)N[C@@H](Cc3ccccc3)C(=O)N[C@@H](Cc3csc4ccccc34)C(=O)N[C@@H](CCC(N)=O)C(N)=O)NC(=O)[C@H](CCC(N)=O)NC(=O)[C@H](Cc3ccccc3)NC(=O)[C@H](C)NC(=O)[C@H](C)NC(=O)[C@H](CCC(=O)O)NC(=O)[C@H](Cc3nn[nH]n3)NC1=O)NC(=O)[C@H](C)NC(=O)[C@H](CC(=O)O)NC2=O (stereo partly shown) [I-414]
Result block: 5.47

Query block: Do the same for CC(=O)N1CCC[C@]12CC=CCCCC1(CCCC=CCCCCCC[C@@](C)(C(=O)N[C@@H](Cc3ccccc3)C(=O)N[C@@H](Cc3csc4ccccc34)C(=O)N[C@H](C(N)=O)[C@@H](C)O)NC(=O)[C@H](CCC(N)=O)NC(=O)[C@H](Cc3ccccc3)NC(=O)[C@H](C)NC(=O)[C@H](C)NC(=O)[C@H](CCC(=O)O)NC(=O)[C@H](CC(=O)O)NC1=O)NC(=O)[C@H](C)NC(=O)[C@H](CC(=O)O)NC2=O (stereo partly shown) [I-508] please
Result block: 7.14

Query block: Do the same for CC(=O)N1CCC[C@]12CC=CCCCC1(CCCC=CCCCOC(=O)N3CC[C@@](C(=O)N[C@@H](Cc4ccsc4)C(=O)N[C@@H](Cc4csc5ccccc45)C(=O)N[C@H](CCC(N)=O)C(N)=O)(C3)NC(=O)[C@H](Cc3ccccc3)NC(=O)[C@H](Cc3ccccc3)NC(=O)[C@H](C)NC(=O)[C@H](C)NC(=O)[C@H](Cc3cccc(C(=O)O)c3)NC(=O)[C@H](CC(=O)O)NC1=O)NC(=O)[C@H](CC(C)(C)C)NC(=O)[C@H](CC(=O)O)NC2=O (stereo partly shown) please
Result block: 7.82

Query block: Do the same for CC[C@H](NC(=O)[C@H](Cc1csc2ccccc12)NC(=O)[C@H](Cc1ccccc1)NC(=O)[C@]1(C)CCCCCCC=CCCCC2(CCCC=CC[C@]3(CCCN3C(C)=O)C(=O)N[C@@H](CC(=O)O)C(=O)N[C@@H](C)C(=O)N2)C(=O)N[C@@H](CC(=O)O)C(=O)N[C@@H](CCC(=O)O)C(=O)N[C@@H](C)C(=O)N[C@@H](C)C(=O)N[C@@H](Cc2ccccc2)C(=O)N[C@@H](CCC(N)=O)C(=O)N1)C(N)=O (stereo partly shown) please
Result block: 7.00

Query block: Do the same for CC(=O)N1CCC[C@]12CC=CCCCC1(CCCC=CCCCCCC[C@@](C)(C(=O)N[C@@H](Cc3ccccc3)C(=O)N[C@@H](Cc3csc4ccccc34)C(=O)N[C@@H](CCC(N)=O)C(N)=O)NC(=O)[C@H](CCC(N)=O)NC(=O)[C@H](Cc3ccccc3)NC(=O)[C@H](C)NC(=O)[C@H](C)NC(=O)[C@H](CCC(=O)O)NC(=O)[C@H](CC(=O)O)NC1=O)NC(=O)[C@H](CCC(N)=O)NC(=O)[C@H](CC(=O)O)NC2=O (stereo partly shown) [I-1539] please
Result block: 7.44

Query block: Do the same for CCCC[C@@H]1NC(=O)[C@H](CC(=O)O)NC(=O)[C@]2(CC=CCCCC3(CCCC=CCCCCCC[C@@](C)(C(=O)N[C@@H](Cc4ccccc4)C(=O)N[C@@H](Cc4csc5ccccc45)C(=O)N[C@@H](CCC(N)=O)C(N)=O)NC(=O)[C@H](CC(C)C)NC(=O)[C@H](Cc4ccccc4)NC(=O)[C@H](C)NC(=O)[C@H](C)NC(=O)[C@H](CCC(=O)O)NC(=O)[C@H](CC(=O)O)NC3=O)NC1=O)CCCN2C(C)=O (stereo partly shown) please
Result block: 7.54

Query block: Do the same for CC(=O)N1CCC[C@]12CC=CCCCC1(CCCC=CCCCCCC[C@@](C)(C(=O)N[C@@H](Cc3ccccc3)C(=O)N[C@@H](Cc3csc4ccccc34)C(=O)N[C@@H](CCC(N)=O)C(N)=O)NC(=O)[C@H](CCC(N)=O)NC(=O)[C@H](Cc3ccccc3)NC(=O)[C@H](C)NC(=O)[C@H](C)NC(=O)[C@H](CCC(=O)O)NC(=O)[C@H](CC(=O)O)NC1=O)NC(=O)[C@H](CC(N)=O)NC(=O)[C@H](CC(=O)O)NC2=O (stereo partly shown) [I-1532] please
Result block: 7.31

Query block: Do the same for CC(=O)N1CCC[C@]12CC=CCCCC1(CCCC=CCCCOC(=O)N3CC[C@@](C(=O)N[C@@H](Cc4ccsc4)C(=O)N[C@@H](Cc4csc5ccccc45)C(=O)N[C@@H](CCC(N)=O)C(N)=O)(C3)NC(=O)[C@H](CC(N)=O)NC(=O)[C@H](Cc3ccccc3)NC(=O)[C@H](C)NC(=O)[C@H](C)NC(=O)[C@H]([C@@H](C)O)NC(=O)[C@H](CC(N)=O)NC1=O)NC(=O)[C@H](CC(C)(C)C)NC(=O)[C@H](Cc1ccccc1C(=O)O)NC2=O (single isomer, unassigned) [I-2136] please
Result block: 5.24

Query block: Do the same for CC(=O)N1CCC[C@]12CC=CCCCC1(CCCC=CCCCOC(=O)N3CC[C@@](C(=O)N[C@@H](Cc4ccsc4)C(=O)N[C@@H](Cc4csc5ccccc45)C(=O)N[C@H](CO)[C@@H](C)O)(C3)NC(=O)[C@H](Cc3cccc(C(F)(F)F)c3)NC(=O)[C@H](Cc3ccccc3)NC(=O)[C@H](C)NC(=O)[C@H](C)NC(=O)[C@H](CC(=O)O)NC(=O)[C@H](CC(=O)O)NC1=O)NC(=O)[C@H](CC(C)(C)C)NC(=O)[C@H](CC(=O)O)NC2=O (stereo partly shown) please
Result block: 7.66

Query block: Do the same for CC(=O)N1CCC[C@]12CC=CCCCC1(CCCC=CCCCCCC[C@@](C)(C(=O)N[C@@H](Cc3ccccc3)C(=O)N[C@@H](Cc3csc4ccccc34)C(=O)N[C@@H](Cc3c[nH]cn3)C(N)=O)NC(=O)[C@H](CC(N)=O)NC(=O)[C@H](Cc3ccccc3)NC(=O)[C@H](C)NC(=O)[C@H](C)NC(=O)[C@H](CCC(=O)O)NC(=O)[C@H](CC(=O)O)NC1=O)NC(=O)[C@H](C)NC(=O)[C@H](CC(=O)O)NC2=O (stereo partly shown) [I-421] please
Result block: 7.00
